Listing of entries alongside the reported max activity.
- test-protocol: Bmi1-luciferase reporter activators in mESC, dose response, esBAF inhibitor project, mouse embryonic stem cells, cherry-pick (AID 651717);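 also: luciferase knocked into Bmi1 locus with EF-1a renilla as cell number control; rising ratio signals esBAF inhibition which derepresses Bmi1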
- condition-set: firefly/renilla ratio, 24 h, active compounds read high; at 35 µM unless noted
About 950 (79%) of roughly 1,200 compounds were called active. So high a share suggests a set chosen from earlier hits. A selection follows. Entries with a potency or affinity are not part of this list.
property-measured: max activity

INSERT INTO assay_data (molecule, result) VALUES
  ('CC1CC(C)(C)CC2(C1)NC(=O)N(CC(=O)OCC(=O)Nc1cc(S(=O)(=O)N3CCCCC3)ccc1Cl)C2=O (stereo unspecified)', '16.1% [at 0.5 µM] (inactive)'),
  ('O=C1NC(Cc2ccc(O)cc2)c2nc3ccc(Br)cc3c(=O)n2-c2cc3ccccc3cc21 (stereo unspecified)', '6.63% [at 8 µM] (inactive)'),
  ('O=C(NCc1cccs1)Nc1cccc(Cl)c1', '-20.3% (inactive)'),
  ('C[C@@H]1CN([C@@H](C)CO)C(=O)c2cc(NC(=O)Cc3cn(C)c4ccccc34)ccc2O[C@H]1CN(C)C(=O)Nc1ccc2c(c1)OCO2', '9.93% [at 8 µM] (inactive)'),
  ('C[C@H]1CN([C@@H](C)CO)C(=O)Cc2cc(NC(=O)Nc3ccc4c(c3)OCO4)ccc2O[C@@H]1CN(C)Cc1ccccc1', '-4.95% [at 2.1 µM] (inactive)'),
  ('CCc1ccc(C(=O)CN2C(=O)NC3(CCCCCC3)C2=O)cc1', '32.8% (inactive)'),
  ('CO[C@@H]1CN(C)C(=O)c2ccc(NC(=O)c3nc4ccccc4s3)cc2OC[C@@H](C)N(Cc2cccnc2)C[C@H]1C', '18.5% (inactive)'),
  ('CN(CC(=O)Nc1ccc(Cl)c(S(=O)(=O)N(C)C)c1)Cc1ccccc1', '16.8% [at 1 µM] (inactive)'),
  ('C[C@@H]1CN([C@@H](C)CO)C(=O)c2cc(NC(=O)Nc3ccc4c(c3)OCO4)ccc2O[C@@H](C)CCCCO[C@@H]1CN(C)S(=O)(=O)c1cn(C)cn1', '-11% [at 0.5 µM] (inactive)'),
  ('C[C@@H]1CN([C@H](C)CO)C(=O)Cc2cc(NC(=O)C3CCCCC3)ccc2O[C@H]1CN(C)C(=O)Nc1ccc2c(c1)OCO2', '7.16% [at 1.1 µM] (inactive)'),
  ('CC(=O)c1ccc(N(C(=O)Cc2c[nH]c3ccccc23)C(C(=O)NC2CCCCC2)c2cccs2)cc1 (stereo unspecified)', '-9.23% (inactive)');
